Source of measurements: the NIST ThermoML archive (doi:10.1016/j.fluid.2006.03.015)

Experiment: molar heat capacity at constant pressure
Details: 340.15 K; 101.33 kPa; Liquid; Small sample (50 mg) DSC
± gives the expanded uncertainty stated by the source.
Reported molar heat capacity at constant pressure values follow for various molecules
# number then unit; no other words

Below: 6 molecules and their reported molar heat capacity at constant pressure.
>>> df
                                   molecule         obs_value
0  CCCCCCCCn1cc[n+](C)c1.O=S(=O)([O-])C(F)(F)F [1-octyl-3-methylimidazolium trifluoromethanesulfonate]  620 ± 32 J/K/mol
1  CCCCCC[n+]1ccn(C)c1.O=S(=O)([N-]S(=O)(=O)C(F)(F)F)C(F)(F)F  684 ± 36 J/K/mol
2  CCCCn1cc[n+](C)c1.O=S(=O)([O-])C(F)(F)F [1-butyl-3-methylimidazolium trifluoromethanesulfonate]  460 ± 24 J/K/mol
3  CCCC[n+]1ccccc1.O=S(=O)([N-]S(=O)(=O)C(F)(F)F)C(F)(F)F [1-butylpyridinium bis[(trifluoromethyl)sulfonyl]imide]  594 ± 31 J/K/mol
4  CCn1cc[n+](C)c1.O=S(=O)([O-])C(F)(F)F [1-ethyl-3-methylimidazolium trifluoromethanesulfonate]  395 ± 21 J/K/mol
5  CCCCCCn1cc[n+](C)c1.O=S(=O)([O-])C(F)(F)F [1-hexyl-3-methylimidazolium trifluoromethanesulfonate]  539 ± 28 J/K/mol

Value of measured molar heat capacity at constant pressure for the entry c1ccccc1 : 147.55 ± 7.7 J/K/mol

Entry O — recorded molar heat capacity at constant pressure = 75.23 ± 3.9 J/K/mol
